Assay Target: murine GOT1 (Mus musculus)
Construct: recombinant, C-terminal 6 His-tag
Sequence (P05201 2-413): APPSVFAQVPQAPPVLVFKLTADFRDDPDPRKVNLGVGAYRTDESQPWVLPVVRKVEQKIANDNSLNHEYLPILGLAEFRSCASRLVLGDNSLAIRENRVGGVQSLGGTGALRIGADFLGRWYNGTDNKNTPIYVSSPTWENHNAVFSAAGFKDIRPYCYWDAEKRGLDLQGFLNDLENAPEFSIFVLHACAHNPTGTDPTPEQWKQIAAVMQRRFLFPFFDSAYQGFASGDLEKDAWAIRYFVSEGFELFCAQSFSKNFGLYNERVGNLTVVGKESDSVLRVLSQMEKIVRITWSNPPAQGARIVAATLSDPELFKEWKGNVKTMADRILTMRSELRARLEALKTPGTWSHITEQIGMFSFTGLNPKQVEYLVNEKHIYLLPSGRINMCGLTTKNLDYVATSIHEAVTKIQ
Assay Explanation: microscale thermophoresis with labelled recombinant GOT1; supported by purified enzyme inhibition
Measured Property: pKd
Numbers only, as −log10 of the molar value.

Query string: Please report pKd for the following compound: CC(C)=CCc1cc(/C=C2\OC(=O)C(c3cc(CC=C(C)C)c(O)cc3O)=C2O)ccc1O
Result string: 5.27

Measured values drawn from paper PMC6717386 for this set.
